Sourced from the kinase profiling compilation of Christmann-Franck et al. (2016)

# TEST_TARGET: MAP3K12 (human) (UniProt Q12852)
# Sequence (Q12852 whole entry, looked up): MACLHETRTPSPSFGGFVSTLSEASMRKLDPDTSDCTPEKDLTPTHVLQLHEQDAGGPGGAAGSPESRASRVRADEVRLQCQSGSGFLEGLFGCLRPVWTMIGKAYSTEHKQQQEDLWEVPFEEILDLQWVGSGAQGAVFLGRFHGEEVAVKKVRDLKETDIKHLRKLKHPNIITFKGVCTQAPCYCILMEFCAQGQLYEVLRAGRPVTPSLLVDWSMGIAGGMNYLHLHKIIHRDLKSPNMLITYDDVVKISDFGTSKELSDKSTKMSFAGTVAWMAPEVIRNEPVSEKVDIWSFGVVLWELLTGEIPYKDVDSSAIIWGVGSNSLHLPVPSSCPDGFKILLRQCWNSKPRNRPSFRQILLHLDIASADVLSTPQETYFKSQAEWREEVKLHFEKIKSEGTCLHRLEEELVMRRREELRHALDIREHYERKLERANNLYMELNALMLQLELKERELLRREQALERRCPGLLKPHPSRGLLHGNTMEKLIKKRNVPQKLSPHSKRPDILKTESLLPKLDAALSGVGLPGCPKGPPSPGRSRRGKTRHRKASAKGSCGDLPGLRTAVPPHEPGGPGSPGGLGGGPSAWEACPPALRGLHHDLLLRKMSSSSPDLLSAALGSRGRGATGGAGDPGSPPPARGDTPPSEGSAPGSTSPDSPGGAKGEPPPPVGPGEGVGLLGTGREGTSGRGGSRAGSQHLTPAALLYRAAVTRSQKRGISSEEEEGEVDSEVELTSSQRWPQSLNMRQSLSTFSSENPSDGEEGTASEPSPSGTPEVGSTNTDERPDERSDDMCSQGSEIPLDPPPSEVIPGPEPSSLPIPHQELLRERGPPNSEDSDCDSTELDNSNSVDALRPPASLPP
# ASSAY_NAME: KINOMEscan competition binding
# STATED_CONDITIONS: compound 10.0 µM
kinase still bound, per cent of control strictly under 80% means yes (1); at 80% or over means no (0).

Use the examples below as a reference point.
INSERT INTO results (chemical_string, group_label) VALUES
  ('COc1cc(N2CCN(C)CC2)ccc1Nc1ncc2c(n1)N(C)c1sccc1C(=O)N2C', 'no (0)'),
  ('COc1cc(N2CCC(O)CC2)ccc1Nc1ncc2c(n1)N1CCc3cccc(c31)C(=O)N2C', 'yes (1)'),
  ('COc1cc(N2CCN(C)CC2)ccc1Nc1ncc2c(n1)N(C)c1ccccc1N(C)C2=O', 'no (0)'),
  ('COc1cc(N2CCN(C)CC2)ccc1Nc1ncc2c(n1)Nc1ccccc1NC2=O', 'no (0)'),
  ('O=C1NC(=O)/C(=C/c2c[nH]c(=O)c(-c3ccc(N4CCNCC4)nc3)c2)S1', 'yes (1)'),
  ('CN1C(=O)c2ccccc2N(C)c2nc(Nc3ccc(N4CCC(O)CC4)cc3)ncc21', 'no (0)'),
  ('CN1C(=O)c2ccccc2N(C)c2nc(NS(=O)(=O)c3ccc(N)cc3)ncc21', 'no (0)');

Exercise: kinase still bound, per cent of control under 80%? Item: CN1CCN(c2ccc(C(=O)Nc3ncc4c(n3)N(C)c3ccccc3C(=O)N4C)cc2)CC1
Solution: no (0)

----------
The following molecules are listed with their measured kinase still bound, per cent of control values.
# TEST_TARGET: UniProtKB Q8N752
# Sequence (Q8N752 whole entry, looked up): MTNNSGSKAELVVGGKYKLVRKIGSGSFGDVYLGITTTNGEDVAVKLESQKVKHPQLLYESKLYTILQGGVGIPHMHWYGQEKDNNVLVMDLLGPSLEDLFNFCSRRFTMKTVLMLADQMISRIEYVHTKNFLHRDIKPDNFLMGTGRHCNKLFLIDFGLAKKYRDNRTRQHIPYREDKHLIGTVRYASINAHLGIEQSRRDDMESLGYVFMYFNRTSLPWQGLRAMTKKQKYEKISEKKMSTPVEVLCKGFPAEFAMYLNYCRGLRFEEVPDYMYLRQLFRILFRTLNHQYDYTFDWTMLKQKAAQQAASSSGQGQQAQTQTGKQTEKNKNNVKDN
# ASSAY_NAME: KINOMEscan competition binding
# STATED_CONDITIONS: compound 10.0 µM
Numbers only; they are read as %.

Sample answers from the record:
INSERT INTO measurements (chemical_string, recorded_result) VALUES
  ('COc1cc(N2CCC(O)CC2)ccc1Nc1ncc2c(n1)N1CCc3cccc(c31)C(=O)N2C', 95),
  ('CN1CCN(c2ccc(C(=O)Nc3ncc4c(n3)N(C)c3ccccc3C(=O)N4C)cc2)CC1', 77);

Exercise: Any idea what its kinase still bound, per cent of control is? The molecule is COc1cc(N2CCN(C)CC2)ccc1Nc1ncc2c(n1)N(C)c1sccc1C(=O)N2C
Solution: 93

Exercise: Continue with CS(=O)(=O)Nc1ccc(-c2cncc(/C=C3\SC(=N)NC3=O)c2)cc1
Solution: 21

----------
The following molecules are listed with their measured IC50 values.
# TEST_TARGET: UniProt P11309
# Sequence (P11309 whole entry, looked up): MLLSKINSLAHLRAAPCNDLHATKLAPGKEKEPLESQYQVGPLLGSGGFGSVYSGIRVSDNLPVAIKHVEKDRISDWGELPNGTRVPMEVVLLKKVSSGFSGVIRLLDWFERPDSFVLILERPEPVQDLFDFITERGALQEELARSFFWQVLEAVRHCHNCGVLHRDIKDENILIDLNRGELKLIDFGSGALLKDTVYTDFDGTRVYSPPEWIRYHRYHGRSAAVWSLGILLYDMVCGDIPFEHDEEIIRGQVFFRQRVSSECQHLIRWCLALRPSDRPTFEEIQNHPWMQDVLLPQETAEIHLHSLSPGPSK
Numbers only; they are read as nM.

Sample answers from the record:
INSERT INTO assay_data (chemical_string, assay_readout, recorded_result) VALUES
  ('N=C1NC(=O)/C(=C/c2ccc(-c3cccc4ccccc34)o2)S1', 'IC50', 2170),
  ('CS(=O)(=O)Nc1ccc(-c2ccc(/C=C3\SC(=N)NC3=O)o2)cc1', 'IC50', 204);

Exercise: Any idea what its IC50 is? The molecule is N=C1NC(=O)/C(=C/c2ccc(-c3ccc(Cl)cc3)o2)S1
Solution: 895

Exercise: Continue with COc1cc(C(N)=O)ccc1-c1ccc(/C=C2\SC(=N)NC2=O)o1
Solution: 861

----------
# TEST_TARGET: FGFR4 (human) (UniProt P22455)
# Sequence (P22455 whole entry, looked up): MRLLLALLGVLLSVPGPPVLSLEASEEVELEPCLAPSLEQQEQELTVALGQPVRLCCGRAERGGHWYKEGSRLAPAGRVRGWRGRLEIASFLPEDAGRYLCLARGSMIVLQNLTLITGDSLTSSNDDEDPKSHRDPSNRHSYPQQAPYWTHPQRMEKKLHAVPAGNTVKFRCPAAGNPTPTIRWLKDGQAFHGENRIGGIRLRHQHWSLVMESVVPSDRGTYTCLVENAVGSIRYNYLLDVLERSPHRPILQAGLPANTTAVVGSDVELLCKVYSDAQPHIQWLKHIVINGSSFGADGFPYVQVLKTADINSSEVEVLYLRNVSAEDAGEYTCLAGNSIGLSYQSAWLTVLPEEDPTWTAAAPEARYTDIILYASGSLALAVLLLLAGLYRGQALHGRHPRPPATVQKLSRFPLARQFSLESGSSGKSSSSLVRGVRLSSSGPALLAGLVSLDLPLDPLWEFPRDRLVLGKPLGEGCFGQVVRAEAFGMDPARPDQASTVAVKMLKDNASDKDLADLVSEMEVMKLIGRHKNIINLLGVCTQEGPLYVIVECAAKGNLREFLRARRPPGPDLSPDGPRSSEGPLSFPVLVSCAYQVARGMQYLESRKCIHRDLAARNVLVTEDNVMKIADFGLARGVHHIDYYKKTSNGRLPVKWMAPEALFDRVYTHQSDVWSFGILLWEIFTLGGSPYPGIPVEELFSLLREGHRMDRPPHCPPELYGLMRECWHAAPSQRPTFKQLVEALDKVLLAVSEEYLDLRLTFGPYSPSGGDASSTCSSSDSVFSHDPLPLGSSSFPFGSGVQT
# ASSAY_NAME: KINOMEscan competition binding
# STATED_CONDITIONS: compound 10.0 µM
ASSAY_READOUT: kinase still bound, per cent of control (%)
Numbers only; they are read as %.

Sample answers from the record:
INSERT INTO measurements (chemical_string, assay_readout, readout_units, recorded_result) VALUES
  ('COc1cc(N2CCN(C)CC2)ccc1Nc1ncc2c(n1)N(C)c1sccc1C(=O)N2C', 'kinase still bound, per cent of control', '%', 40),
  ('COc1cc(N2CCC(O)CC2)ccc1Nc1ncc2c(n1)N(C)c1ccccc1C(=O)N2C', 'kinase still bound, per cent of control', '%', 6);

The record that follows has no kinase still bound, per cent of control shown yet.
Exercise: Any idea what its kinase still bound, per cent of control is? The compound is CN1CCN(c2ccc(C(=O)Nc3ncc4c(n3)N(C)c3ccccc3C(=O)N4C)cc2)CC1
Solution: 100
